# System: MALME-3M melanoma
# measurement description: NCI-60 one-dose screen, 48 h (100 = growth as untreated, 0 = no growth, -100 = all killed)
# cond: 10 µM unless noted
The panel holds about 83,000 compounds, 20% with a hit somewhere; the sample as a whole holds those more often.
parameter: growth (%)
State just the number; it will be interpreted in %.

Form: molecule = `CC(C)C1=CC2=C(C=O)C[C@@H]3[C@](C)(CCC[C@@]3(C)C(=O)OCC#CCN3CCCC3)[C@H]2CC1` ; growth = 81.8

Form: molecule = CN(C)CCCC(C#N)c1ccccc1 (stereo not given) ; growth = 131

Form: molecule = O=C(Oc1ccccc1[N+](=O)[O-])C1CCCN1C(=O)OCc1ccccc1 (stereo not given) ; growth = 112

Form: molecule = `O=C(NCCCNc1nccc(-n2ccc3cccnc32)n1)c1c(F)cccc1F` ; growth = 106

Form: molecule = `Cc1cc(N/N=C/c2nc(-c3ccc(Br)cc3)oc2C)c2cc(Cl)ccc2n1` ; growth = 55.6

Form: molecule = `O=S(=O)(NCCCNc1nccc(-n2ccc3cccnc32)n1)c1cccc(C(F)(F)F)c1` ; growth = 112

Form: molecule = `N=C(N)c1ccc(-c2cc(Cl)cc(Cl)c2)cn1` ; growth = 95.8

Form: molecule = COc1cc(C2C3=C(COC3=O)Nc3cc4c(cc32)CCC4)cc2c1OCO2 (stereo not given) ; growth = 60

Form: molecule = `COc1ccc(C(=O)N2NC(=O)/C(=C/c3ccc(Br)cc3)N=C2c2ccccc2)cc1` ; growth = 90.3

Form: molecule = `S=C(S)NCCc1c[nH]c2ccccc12` ; growth = 99.1
